- Tested on: SiHa cells
- procedureText: IC50 assay (inhibition of proliferation, 4 h exposure, SRB)
- testContext: read-out: Oxic IC50; SiHa, pHe 6.5, 4 h, oxic
readoutLabel: IC50

Reported IC50 ( O=C(O)CCCNc1n[n+]([O-])c2ccccc2[n+]1[O-] [Compound 10a] ) = > 2 mM

---

Provide the reported pIC50 of each item.
- Tested on: SiHa cells
- procedureText: IC50 assay (inhibition of proliferation, 4 h exposure, SRB)
- testContext: Homo sapiens, SiHa, 4 h, read-out: Anoxic IC50, SiHa, pHe 6.5, 4 h, anoxic
One number for each entry, as −log10 of the molar value.

Past entries and their recorded results:
- compound: "O=C(O)CCc1n[n+]([O-])c2cc3c(cc2[n+]1[O-])CCC3"
  measuredValue: 3.37
- compound: "Cc1ccc2c(c1)[n+]([O-])nc(CCC(=O)O)[n+]2[O-]"
  measuredValue: 3.65
- compound: "[O-][n+]1nc(CCCN2CCOCC2)[n+]([O-])c2cc3c(cc21)CCC3 [Compound 2, SN30000, reference compound]"
  measuredValue: 5.26

Now let's try a different one.
pIC50 reported for this compound COC(=O)CCNc1n[n+]([O-])c2cc3c(cc2[n+]1[O-])CCC3 [Compound 10b] : 4.68

---

- System: FaDu cells
- procedureText: IC50 assay (inhibition of proliferation, 4 h exposure, SRB)
- Type: cell-based
readoutLabel: TMR (oxic IC50 pHe 7.4/anoxic IC50 pHe 6.5)
Answers are plain numbers.

- molecule: "COC(=O)CCNc1n[n+]([O-])c2cc3c(cc2[n+]1[O-])CCC3 [Compound 10b]"
  measuredValue: 7.31
- molecule: "CCOC(=O)CCCNc1n[n+]([O-])c2ccccc2[n+]1[O-] [Compound 11b]"
  measuredValue: 10.1
- molecule: "O=C(O)CCc1n[n+]([O-])c2ccccc2[n+]1[O-] [Compound 4a]"
  measuredValue: 9.36
- molecule: "Cc1ccc2c(c1)[n+]([O-])nc(CCC(=O)O)[n+]2[O-] [Compound 5a]"
  measuredValue: 13.9
- molecule: "CCOC(=O)CNc1n[n+]([O-])c2ccccc2[n+]1[O-] [Compound 8b]"
  measuredValue: 11.2
- molecule: "[O-][n+]1nc(CCCN2CCOCC2)[n+]([O-])c2cc3c(cc21)CCC3 [Compound 2, SN30000, reference compound]"
  measuredValue: 29.8
- molecule: "Nc1n[n+]([O-])c2ccccc2[n+]1[O-] [Compound 3, tirapazamine, reference compound]"
  measuredValue: 26.2

Briefly, TMR (oxic IC50 pHe 7.4/anoxic IC50 pHe 6.5) measured for COC(=O)CCc1n[n+]([O-])c2ccccc2[n+]1[O-] [Compound 4b] : 42.3

---

- System: SiHa and FaDu cells
- procedureText: IC50 assay, summary statements over both cell lines
- Format: cell-based
- testContext: SiHa and FaDu, anoxia, pHe 6.5; read-out: Potency (IC50) under anoxia at pHe 6.5
pIC50: −log10 of the molar value.
readoutLabel: pIC50

The compound listed as Nc1n[n+]([O-])c2ccccc2[n+]1[O-] [Compound 3, tirapazamine, reference compound] shows pIC50 equal to 5.07 to 5.54

---

- System: SiHa cells
- procedureText: IC50 assay (inhibition of proliferation, 4 h exposure, SRB)
- testContext: SiHa, pHe 6.5
Provide the recorded ACR (anoxic cytotoxicity ratio = oxic IC50/anoxic IC50) for the entries that follow.
Numbers only.

Answered examples (2):
- compound: "O=C(O)CCc1n[n+]([O-])c2cc3c(cc2[n+]1[O-])CCC3"
  measuredValue: 4.41
- compound: "COC(=O)CCNc1n[n+]([O-])c2cc3c(cc2[n+]1[O-])CCC3 [Compound 10b]"
  measuredValue: 9.90

Could you now look at the following compound, please?
Entry O=C(O)CCc1n[n+]([O-])c2ccccc2[n+]1[O-] ; ACR (anoxic cytotoxicity ratio = oxic IC50/anoxic IC50) = 8.26
